Ref: patent US20240400614A1

# % cleavage uPA t = 60 min per record follows
# tested.on: uPA (Homo sapiens)
# assay.details: FRET peptide cleavage efficiency with uPA
# Assay type: biochemical
# run.conditions: t = 60 min; 200 uM linker, 1 ug/ml protease, 37° C., buffer A pH 8.5
Square brackets hold non-standard residues; d marks the D form. Ends that are not written are not given here. Tyr(3-NO2) = N[C@@H](Cc1ccc(O)c([N+](=O)[O-])c1)C(=O)O; 2Abz = Nc1ccccc1C(=O)O
The reply should contain only the number, in %.

>>> test_result("SSRAVFRKNLGPLGLAG ([2Abz]SSRAVFRKNLGPLGLAG[Tyr(3-NO2)]-NH2) [LNK002]")
10
>>> test_result("GSSYYSGA ([2Abz]GSSYYSGA[Tyr(3-NO2)]-NH2) [LNK079]")
0
>>> test_result("RGRRHSSKLQPLGYFGKL ([2Abz]RGRRHSSKLQPLGYFGKL[Tyr(3-NO2)]-NH2) [LNK062]")
0

q: State recorded % cleavage uPA t = 60 min with uPA (Homo sapiens), entry GSSVYSGR ([2Abz]GSSVYSGR[Tyr(3-NO2)]-NH2) [LNK080] , no comment.
a: 17

q: Report value only: % cleavage uPA t = 60 min, uPA (Homo sapiens), SGRVAGLVG ([2Abz]SGRVAGLVG[Tyr(3-NO2)]-NH2) [LNK016]
a: 6

q: # lookup: uPA (Homo sapiens) % cleavage uPA t = 60 min, key = SGRHSSKLQPLGYFGKL ([2Abz]SGRHSSKLQPLGYFGKL[Tyr(3-NO2)]-NH2) [LNK063]
a: 0

q: Identify measured % cleavage uPA t = 60 min obtained with uPA (Homo sapiens) for RQRRSVVGG ([2Abz]RQRRSVVGG[Tyr(3-NO2)]-NH2) [LNK029] .
a: 0
